# System tested: T1, human CD112R on CHO-CD112R cells (human, UniProt Q6DKI7 41-326)
# T1 construct: whole, on cells; also called hCD112R; PVRIG
# T1 sequence (looked up): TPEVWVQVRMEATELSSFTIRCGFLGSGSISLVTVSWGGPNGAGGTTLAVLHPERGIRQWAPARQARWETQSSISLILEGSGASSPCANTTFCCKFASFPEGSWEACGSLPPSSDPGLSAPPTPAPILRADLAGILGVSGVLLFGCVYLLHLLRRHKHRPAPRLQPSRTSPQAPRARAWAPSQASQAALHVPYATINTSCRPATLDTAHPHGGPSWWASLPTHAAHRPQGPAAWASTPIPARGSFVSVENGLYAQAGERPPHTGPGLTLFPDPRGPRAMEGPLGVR
# Test description: FACS on CHO-CD112R cells
EC50 reference

[
  {
    "Binder": "Chi-70 (antibody, V domains shown, chimeric) VH: DVQLVESGGGLVKLGGSLKLSCVASGFTFSSYHMSWIRQTPEKRLELVAAINSNDINTYYLDTVKGRFTISRDIAKNTLHLQMSSLKSEDTALYYCARHEDYYGFAMDYWGQGTSVTVSS VL: SIVMTQTPKFLLVSAGDRVTITCKASQSVSNDVAWYQQKPGQSPKLLMYYVSNRFTGVPDRFTGSGYGTDFTFTINTVQAEDLAVYFCQQAYRSPWTFGGGTKLEIK",
    "Unit text": "µg/mL",
    "EC50": 0.26
  },
  {
    "Binder": "Chi-61 (antibody, V domains shown, chimeric) VH: DVKLVESGGGLVKLGGSLKLSCAASGFTFSSYHMSWVRQTPEKRLELVAAISRDGDSTYYPDTVKGRFTISRDDAENTLYLQMSSLKSEDTALYYCSRHEDYFGFAMDSWGQGTSVTVSS VL: SIVMTQTPKFLLVSAGDRVTITCKASQSVSNDVAWYQEKPGQSPKLLMYYVSHRFTGVPDRFTGSGYGTDFTFTINTVQAEDLAVYFCHQAYRSPWTFGGGTKLEIK",
    "Unit text": "µg/mL",
    "EC50": 0.107
  },
  {
    "Binder": "Chi-46 (antibody, V domains shown, chimeric) VH: DVKLVESGGGLVKLGGSLKLSCAASGFTFSSYHMSWVRQTPEKRLELVAAINSNVISTYYLDTVKGRFTISRDNAKNTLYLQMSSLKSEDTALYYCARHEDYYGFAMDYWGQGTSVTVSS VL: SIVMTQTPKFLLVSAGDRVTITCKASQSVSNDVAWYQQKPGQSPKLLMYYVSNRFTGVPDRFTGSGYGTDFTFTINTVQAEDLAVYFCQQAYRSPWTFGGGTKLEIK",
    "Unit text": "µg/mL",
    "EC50": 0.433
  },
  {
    "Binder": "Chi-18 (antibody, V domains shown, chimeric) VH: EVQLQQSGAELVKPGASVKISCKASGYTFTDYNMDWVKQSHGKSLEWIGDIHPKYDRTSYNQNFKGKATLTVDKSSRTAYMELRSLTSEDTAVYFCVRINDFDEGFAMDYWGQGTSVTVSS VL: QIVLTQSPAIMSVSPGEKVTMTCSATSSINYMHWYQQKSGTSPKRWIYDTSKLASGVPARFSGSGSGTSYSLTISNMEAEDAATYYCQQWTSNPLTFGAGTKLELK",
    "Unit text": "µg/mL",
    "EC50": 0.294
  }
]

Measured values drawn from patent US20240309087A1 for this set.
